Tested on: VERPE
Test: Post-emergence herbicidal action against harmful plants
Format: in vivo
Conditions: dosage 5 g/ha, assessed visually after about 3 weeks
Quick rule: Activity against VERPE of at least 60% means label 1, below that means label 0.

Worked examples follow.
- Compound: "Cc1nnc(NC(=O)c2ccc(C(F)(F)F)c([S+](C)[O-])c2Cl)o1 (centres unmarked) [drawing 57]"
  Category Label: "label 1"
- Compound: "Cc1nnc(NC(=O)c2ccc(C(F)(F)F)c(S(C)(=O)=O)c2C)o1 [drawing 53]"
  Category Label: "label 1"
- Compound: "Cc1nnc([N-]C(=O)c2ccc(C(F)(F)F)c(S(C)(=O)=O)c2C)o1.[Na+] [drawing 51]"
  Category Label: "label 1"
- Compound: "Cc1nnc([N-]C(=O)c2ccc(C(F)(F)F)c([S+](C)[O-])c2Cl)o1.[Na+] (centres unmarked)"
  Category Label: "label 1"
- Compound: "Cc1nnc(NC(=O)c2ccc(C(F)(F)F)c([S+](C)[O-])c2C)o1 (centres unmarked) [drawing 58, reference compound]"
  Category Label: "label 0"

Form field: Activity against VERPE at least 60%? Entry: Cc1nnc(NC(=O)c2ccc(C(F)(F)F)c([S+](C)[O-])c2C)o1 (centres unmarked) [drawing 56, reference compound]
label 0
